- Assay name: protein stability index of a GFP-peptide fusion (GPS, HEK-293T) (PSI 1-6); higher = more stable;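 note: 24-mer peptide tiles fused after GFP, lentivirally expressed, FACS-sorted into six equal bins by GFP/DsRed ratio, decoded by Illumina sequencing, PSI is the read-weighted mean bin number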
- Applied conditions: treatment: MLN4924 1 uM, 8 h; c terminus: a fixed tail appended
Label scheme, based on protein stability index: group 1 (below 3), group 2 (3 to below 5), group 3 (5 or more)

item_sequence="HNCVDLMQAAEVFSQKHFPEVVQH [KLHL12]" label_class="group 2"
item_sequence="SQIQGHKEMSKVWNDLRPKLSCLF [SNX8]" label_class="group 1"

Into which category would you place QPLRPWAGGDVPHKTHQAPASASS [DYRK1B] ?
group 2

Into which category would you place PEPVYFHCAAVTPAGCMYIHGGVV [KLHDC10] ?
group 1

Into which category would you place REAATKHSKASLPTGEGSISHEEQ [CHCHD6] ?
group 3

Into which category would you place VVKYRRPMDVYETGIEYIVAQGPT [ADAMTSL2] ?
group 1

Into which category would you place REQLQAEASERFAAGYIQCMHEVH [HES6] ?
group 2

Into which category would you place QEMVVSSLVIGALLASLTGGVLID [SLC2A12] ?
group 2

Into which category would you place EIAPQHRRGLLVSLNELMIVIGIL [SLC2A12] ?
group 1

Into which category would you place KPDGSRHQDVPSQDDSKPTQRQFT [AASDHPPT] ?
group 3

* * *

Answer each item with its documented protein stability index.
- Assay name: protein stability index of a GFP-peptide fusion (GPS, HEK-293T) (PSI 1-6); higher = more stable
- Applied conditions: treatment: DMSO; c terminus: a fixed tail appended
Answers are plain numbers.

item_sequence="EWLLDAPELPEGHLEDWLEKRAKR [ZMAT5]" measurement_name="protein stability index" numeric_result=4.95
item_sequence="HFQPNSPASDLEAALEAAGEGLNV [NANOGP8]" measurement_name="protein stability index" numeric_result=5.05
item_sequence="DPSGKGKGKAGRVDLVDESGYVSG [TPPP]" measurement_name="protein stability index" numeric_result=5.1

Reported protein stability index for SKLLLSGTADGADLRTVDPETQAR [ANKRD17] : what is it?
5.08
